The reported measurements were obtained from the supplement of paper PMC9942255.

Readings of AmyQ secretion efficiency for the listed sequences
Test system: Bacillus subtilis DB104 (SP-AmyQ fusion secretion)
EXPERIMENT DESCRIPTION: AmyQ secretion efficiency, weighted average sort bin (1 = best secretion, 10 = worst) (bin number (weighted average, 1-10)); higher = lower secretion efficiency

SEQUENCE CHAIN: MKKRLIAPMLKRRKSLAFFAMSGSAQAAAY
AmyQ secretion efficiency: 7.31
//
SEQUENCE CHAIN: MRMLWRSLALCGLALTLAPCCQAAEP
AmyQ secretion efficiency: 1.93
//
SEQUENCE CHAIN: MKSKGSIMACLILFSFTITTFINTETISLFSN
AmyQ secretion efficiency: 7.29
//
SEQUENCE CHAIN: MKKVLMAFIICLSVLAAPPSGAKAESV
AmyQ secretion efficiency: 2.14
//
SEQUENCE CHAIN: MLKKKWMVGLLAGCLAAGGFSYNAFITEN
AmyQ secretion efficiency: 6.43
//
SEQUENCE CHAIN: MKKWIYVKKKKKKAGIGGFSVHAASS
AmyQ secretion efficiency: 6.75
//
SEQUENCE CHAIN: MKNMSCKLVVSVTLFFSFLTIGPLTHAQNS
AmyQ secretion efficiency: 1.52
//
SEQUENCE CHAIN: MKLSVKIAGVLTVAAAAMTAKMYATAEEE
AmyQ secretion efficiency: 6.08
//
SEQUENCE CHAIN: MKSCKQLIVCSLAAILLLDPQPSFAADS
AmyQ secretion efficiency: 4.16
//
SEQUENCE CHAIN: MKRKLLSSLAISALSLGLLVSAPTASFAASS
AmyQ secretion efficiency: 1.56
//
SEQUENCE CHAIN: MLTKRLLTIYIMLLGLIDDDPGAAQAEEK
AmyQ secretion efficiency: 9.93
//
SEQUENCE CHAIN: MKKRLIGFLVLVPALIMSGITLIEMNKK
AmyQ secretion efficiency: 6.01
//
SEQUENCE CHAIN: MKQGKFSVFLILLLMLTLVVAPKEKEEAASS
AmyQ secretion efficiency: 7.98

----------
Test system: Bacillus subtilis DB104 (SP-AmyQ fusion secretion)
EXPERIMENT DESCRIPTION: AmyQ secretion efficiency, weighted average sort bin (1 = best secretion, 10 = worst) (bin number (weighted average, 1-10)); higher = lower secretion efficiency
REPORTED PROPERTY: AmyQ secretion efficiency

SEQUENCE CHAIN: MKTKTLFIFSAILTLSIFAPNECFAQTA
ASSAY TARGET: Bacillus subtilis DB104 (SP-AmyQ fusion secretion)
MEAS VALUE: 2.92

SEQUENCE CHAIN: MFKKHTISLLIIFLLASAVLAKPMEAHTV
ASSAY TARGET: Bacillus subtilis DB104 (SP-AmyQ fusion secretion)
MEAS VALUE: 2.67

SEQUENCE CHAIN: MRNLTKTSLLLAGLCTAAQMVFVTHVSAEES
ASSAY TARGET: Bacillus subtilis DB104 (SP-AmyQ fusion secretion)
MEAS VALUE: 3.09

SEQUENCE CHAIN: MKSKGSIMACLILFSFTITTFINTGTISAFSN
ASSAY TARGET: Bacillus subtilis DB104 (SP-AmyQ fusion secretion)
MEAS VALUE: 4.33

SEQUENCE CHAIN: MKWMCSICCAAVLLAGEDEDEDAQAEAV
ASSAY TARGET: Bacillus subtilis DB104 (SP-AmyQ fusion secretion)
MEAS VALUE: 8.04

SEQUENCE CHAIN: MKLWMRKTLVVLFTIVTFGLVSPPAALMFDKP
ASSAY TARGET: Bacillus subtilis DB104 (SP-AmyQ fusion secretion)
MEAS VALUE: 3.85

SEQUENCE CHAIN: MPTKKKVMKCLAVTLVFGSMSFPTLTNSGGFKE
ASSAY TARGET: Bacillus subtilis DB104 (SP-AmyQ fusion secretion)
MEAS VALUE: 7.16

----------
The sequences listed here are annotated with their AmyQ secretion efficiency.
Test system: Bacillus subtilis DB104 (SP-AmyQ fusion secretion)
EXPERIMENT DESCRIPTION: AmyQ secretion efficiency, weighted average sort bin (1 = best secretion, 10 = worst) (bin number (weighted average, 1-10)); higher = lower secretion efficiency
REPORTED PROPERTY: AmyQ secretion efficiency

SEQUENCE CHAIN: MTKLKMLSMLTVMIASLFIFSSQTLAVQY
ASSAY TARGET: Bacillus subtilis DB104 (SP-AmyQ fusion secretion)
REPORTED PROPERTY: AmyQ secretion efficiency
MEAS VALUE: 2.28

SEQUENCE CHAIN: MKQKRKIIGWILLLCIIPLFAFTVIASGKEV
ASSAY TARGET: Bacillus subtilis DB104 (SP-AmyQ fusion secretion)
REPORTED PROPERTY: AmyQ secretion efficiency
MEAS VALUE: 6.81

SEQUENCE CHAIN: MKKKQVMLALTAAAGLGLTALHSAPAAKGAPL
ASSAY TARGET: Bacillus subtilis DB104 (SP-AmyQ fusion secretion)
REPORTED PROPERTY: AmyQ secretion efficiency
MEAS VALUE: 3.51

SEQUENCE CHAIN: MGLGKKLSVAVAASFMSLSISLPGVQKAEG
ASSAY TARGET: Bacillus subtilis DB104 (SP-AmyQ fusion secretion)
REPORTED PROPERTY: AmyQ secretion efficiency
MEAS VALUE: 3.62

SEQUENCE CHAIN: MKSKGSIMACLILFSFTITTFINTETISAEED
ASSAY TARGET: Bacillus subtilis DB104 (SP-AmyQ fusion secretion)
REPORTED PROPERTY: AmyQ secretion efficiency
MEAS VALUE: 4.14

SEQUENCE CHAIN: MRKKRVRKCKKAASLTLGSLLPAGYASAKED
ASSAY TARGET: Bacillus subtilis DB104 (SP-AmyQ fusion secretion)
REPORTED PROPERTY: AmyQ secretion efficiency
MEAS VALUE: 7.62

SEQUENCE CHAIN: MTMLRKIIGWILLLCIIATPLFAFTVIASGKEV
ASSAY TARGET: Bacillus subtilis DB104 (SP-AmyQ fusion secretion)
REPORTED PROPERTY: AmyQ secretion efficiency
MEAS VALUE: 5.08

SEQUENCE CHAIN: MKSKGSIMACLILFSFTITTFISVETISAFSN
ASSAY TARGET: Bacillus subtilis DB104 (SP-AmyQ fusion secretion)
REPORTED PROPERTY: AmyQ secretion efficiency
MEAS VALUE: 5.39

SEQUENCE CHAIN: MRKKRVITCVMAASLTLGSLLPAGYASAASD
ASSAY TARGET: Bacillus subtilis DB104 (SP-AmyQ fusion secretion)
REPORTED PROPERTY: AmyQ secretion efficiency
MEAS VALUE: 1.13

SEQUENCE CHAIN: MLKKIGYQGCPRSYGSLLFFTAPASAHVS
ASSAY TARGET: Bacillus subtilis DB104 (SP-AmyQ fusion secretion)
REPORTED PROPERTY: AmyQ secretion efficiency
MEAS VALUE: 7.75

SEQUENCE CHAIN: MKKKQVMLALTAAAGLGLTALHAKAAPL
ASSAY TARGET: Bacillus subtilis DB104 (SP-AmyQ fusion secretion)
REPORTED PROPERTY: AmyQ secretion efficiency
MEAS VALUE: 2.9

SEQUENCE CHAIN: MKKRKVLLSALLLLLFAFEPSASGKKL
ASSAY TARGET: Bacillus subtilis DB104 (SP-AmyQ fusion secretion)
REPORTED PROPERTY: AmyQ secretion efficiency
MEAS VALUE: 2.85

SEQUENCE CHAIN: MNLRKILLSSALSLGMLKRKAPVLATSS
ASSAY TARGET: Bacillus subtilis DB104 (SP-AmyQ fusion secretion)
REPORTED PROPERTY: AmyQ secretion efficiency
MEAS VALUE: 7.26

----------
Tested on: Bacillus subtilis DB104 (SP-AmyQ fusion secretion)
EXPERIMENT DESCRIPTION: AmyQ secretion efficiency, weighted average sort bin (1 = best secretion, 10 = worst) (bin number (weighted average, 1-10)); higher = lower secretion efficiency
Use t when the recorded AmyQ secretion efficiency is no lower than 4; use f when it is lower.

SEQUENCE CHAIN: MKKRTIQVMIMFTLLLTMAFSADAADS
ASSAY TARGET: Bacillus subtilis DB104 (SP-AmyQ fusion secretion)
CLASS LABEL: t

SEQUENCE CHAIN: MKRIRIPMTLALGAALTIAPLSFRSAEEN
ASSAY TARGET: Bacillus subtilis DB104 (SP-AmyQ fusion secretion)
CLASS LABEL: t

SEQUENCE CHAIN: MKQGRTFLTSFMLLAMTGQTALAKDV
ASSAY TARGET: Bacillus subtilis DB104 (SP-AmyQ fusion secretion)
CLASS LABEL: t

SEQUENCE CHAIN: MKKIVSILFMFGLVMGFSQFQPSTVFAAKK
ASSAY TARGET: Bacillus subtilis DB104 (SP-AmyQ fusion secretion)
CLASS LABEL: f

SEQUENCE CHAIN: MKKRLIAPMLLSAASLAFFAMSGSAQLAAY
ASSAY TARGET: Bacillus subtilis DB104 (SP-AmyQ fusion secretion)
CLASS LABEL: t

SEQUENCE CHAIN: MKRLLVSLRVWMVFLMNWVTPDRKTAARAVY
ASSAY TARGET: Bacillus subtilis DB104 (SP-AmyQ fusion secretion)
CLASS LABEL: t

SEQUENCE CHAIN: MRFTKVVGFLSVLGLAAEDEEEEAQAEKA
ASSAY TARGET: Bacillus subtilis DB104 (SP-AmyQ fusion secretion)
CLASS LABEL: t

SEQUENCE CHAIN: MTMLRKIIGWILLLCIIPLFAFTVIASTKEV
ASSAY TARGET: Bacillus subtilis DB104 (SP-AmyQ fusion secretion)
CLASS LABEL: t

SEQUENCE CHAIN: MKRRRRKLLSTLLIGIMLLTFAPSAFAKQD
ASSAY TARGET: Bacillus subtilis DB104 (SP-AmyQ fusion secretion)
CLASS LABEL: f

SEQUENCE CHAIN: MAIIIAIIAAVIVIAALITFNVRNADDD
ASSAY TARGET: Bacillus subtilis DB104 (SP-AmyQ fusion secretion)
CLASS LABEL: t

SEQUENCE CHAIN: MFTFSGSMFLVGLSAALMSISLFSATASAAST
ASSAY TARGET: Bacillus subtilis DB104 (SP-AmyQ fusion secretion)
CLASS LABEL: f

SEQUENCE CHAIN: MRRVCFLAALIMAFTLPNSVYAQKP
ASSAY TARGET: Bacillus subtilis DB104 (SP-AmyQ fusion secretion)
CLASS LABEL: f

SEQUENCE CHAIN: MKKQIITATTAVVLGSTLFAGAYSAQSI
ASSAY TARGET: Bacillus subtilis DB104 (SP-AmyQ fusion secretion)
CLASS LABEL: t

SEQUENCE CHAIN: MRSYIKVLTMCFLGLILFVPTALTDNS
ASSAY TARGET: Bacillus subtilis DB104 (SP-AmyQ fusion secretion)
CLASS LABEL: t

SEQUENCE CHAIN: MNKPTKLFSTLALAAAAAAGGAGTIHAQQP
ASSAY TARGET: Bacillus subtilis DB104 (SP-AmyQ fusion secretion)
CLASS LABEL: f

SEQUENCE CHAIN: MRGKSAVLLSLIMLIAGFLIYFSFQM
ASSAY TARGET: Bacillus subtilis DB104 (SP-AmyQ fusion secretion)
CLASS LABEL: t

SEQUENCE CHAIN: MAIIIAIIAAVIVIAALITFNVQNASPG
ASSAY TARGET: Bacillus subtilis DB104 (SP-AmyQ fusion secretion)
CLASS LABEL: t

SEQUENCE CHAIN: MKKRKRRNFKRFIAAFLVLALMILSLVPADVLAKST
ASSAY TARGET: Bacillus subtilis DB104 (SP-AmyQ fusion secretion)
CLASS LABEL: f

SEQUENCE CHAIN: MNKLKRLSMLTVMIASVFIFSSHALAADD
ASSAY TARGET: Bacillus subtilis DB104 (SP-AmyQ fusion secretion)
CLASS LABEL: t

SEQUENCE CHAIN: MKWMCSICCAAVLLAGGARQAEAV
ASSAY TARGET: Bacillus subtilis DB104 (SP-AmyQ fusion secretion)
CLASS LABEL: f

SEQUENCE CHAIN: MRPVFPLILSAVLFLSCFFGARQTEPSASKR
ASSAY TARGET: Bacillus subtilis DB104 (SP-AmyQ fusion secretion)
CLASS LABEL: t

SEQUENCE CHAIN: MLTINLLTIYIMLLGLIAWFPGAAQAEEK
ASSAY TARGET: Bacillus subtilis DB104 (SP-AmyQ fusion secretion)
CLASS LABEL: t

SEQUENCE CHAIN: MKKARRLSAAAAVGLFTFGGVQQASAKEL
ASSAY TARGET: Bacillus subtilis DB104 (SP-AmyQ fusion secretion)
CLASS LABEL: f

SEQUENCE CHAIN: MKKKLAAGLTASAIVGTTLVVTPLEAATI
ASSAY TARGET: Bacillus subtilis DB104 (SP-AmyQ fusion secretion)
CLASS LABEL: f

SEQUENCE CHAIN: MNSMTIWTIILGALLVCCIAVAYTLTKSQAGASSS
ASSAY TARGET: Bacillus subtilis DB104 (SP-AmyQ fusion secretion)
CLASS LABEL: t
